Reported values: Ki for UniProt:P46098, one per item.
Sequence (P46098 whole entry): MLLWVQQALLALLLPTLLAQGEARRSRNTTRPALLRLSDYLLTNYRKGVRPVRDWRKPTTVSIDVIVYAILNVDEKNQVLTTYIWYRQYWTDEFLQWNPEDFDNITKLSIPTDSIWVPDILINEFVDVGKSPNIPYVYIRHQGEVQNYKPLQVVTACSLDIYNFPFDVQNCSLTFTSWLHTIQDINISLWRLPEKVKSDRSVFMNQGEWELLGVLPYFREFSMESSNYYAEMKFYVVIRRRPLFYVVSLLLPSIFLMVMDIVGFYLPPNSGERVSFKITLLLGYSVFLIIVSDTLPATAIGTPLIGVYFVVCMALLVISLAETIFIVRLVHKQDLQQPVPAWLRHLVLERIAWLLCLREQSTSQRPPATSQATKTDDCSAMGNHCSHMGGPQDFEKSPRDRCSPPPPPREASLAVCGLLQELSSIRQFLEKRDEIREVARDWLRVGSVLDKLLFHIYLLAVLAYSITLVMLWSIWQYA

>>> print(df.to_string())
                                        smi  assayed_system   result
0  CN1CC[C@H]2CC(=O)[C@H](Cc3ccccc3)[C@H]3CCC[C@@H]1[C@H]23  UniProt:P46098  > 10 µM

Okay, now this molecule:
**Query** Consider the molecule shown here: "CCCN1CC[C@H]2c3cc4ccc(C(F)(F)F)cc4nc3[C@H](CC)[C@H]3CCC[C@@H]1[C@@H]32" What is its recorded Ki?
**Result** > 10 µM

---

ASSAYED_SYSTEM: Alpha-1B adrenergic receptor (Homo sapiens, UniProt P35368)
Sequence (P35368 whole entry): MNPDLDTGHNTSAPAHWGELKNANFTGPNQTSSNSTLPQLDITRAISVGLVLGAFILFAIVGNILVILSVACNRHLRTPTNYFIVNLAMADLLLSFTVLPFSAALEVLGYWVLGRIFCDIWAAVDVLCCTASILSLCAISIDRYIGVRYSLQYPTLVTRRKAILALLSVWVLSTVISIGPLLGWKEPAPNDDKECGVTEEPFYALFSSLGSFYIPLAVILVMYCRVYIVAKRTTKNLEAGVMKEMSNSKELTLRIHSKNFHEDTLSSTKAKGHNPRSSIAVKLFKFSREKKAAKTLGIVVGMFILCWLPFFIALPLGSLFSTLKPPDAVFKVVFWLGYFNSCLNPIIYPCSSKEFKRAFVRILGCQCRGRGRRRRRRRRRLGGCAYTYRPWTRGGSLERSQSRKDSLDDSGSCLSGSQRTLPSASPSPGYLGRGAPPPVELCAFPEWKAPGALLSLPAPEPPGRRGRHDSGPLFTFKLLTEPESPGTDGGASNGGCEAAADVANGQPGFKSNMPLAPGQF
MEASUREMENT_NAME: Ki

>>> df
                                        smi   result
0  CN1CC[C@H]2CC(=O)[C@H](Cc3ccccc3)[C@H]3CCC[C@@H]1[C@H]23  > 10 µM

Okay, now this compound:
**Query** Consider the compound shown here: "CCCN1CC[C@H]2c3cc4ccc(C(F)(F)F)cc4nc3[C@H](CC)[C@H]3CCC[C@@H]1[C@@H]32" What is its recorded Ki?
**Result** > 10 µM
